molecular target: UniProtKB P24941
pIC50: −log10 of the molar value.
value-type: pIC50

Exercise: Requested field: pIC50. Item: NC(=O)c1cccc(-c2cnc3[nH]cc(-c4ccoc4)c3c2)c1 [Compound 12]
Key: < 6.00

---

assay: In vivo pharmacokinetic evaluation; conditions: blood; 10 mg/kg (po)
value-type: MRT

Exercise: Reported MRT for NC(=O)c1cccc(-c2cnc3[nH]cc(-c4ccoc4)c3c2)c1 : what is it?
Key: 2.24 h

---

molecular target: CDK8 (Homo sapiens, UniProt P49336); assay: CDK8 enzyme activity assay (ADP-Glo Kinase Assay); format: biochemical; details: CDK8, 200 nM; means ± SD, two experiments; read-out: Inhibition rate @ 200 nM (%)
Sequence (P49336 whole entry): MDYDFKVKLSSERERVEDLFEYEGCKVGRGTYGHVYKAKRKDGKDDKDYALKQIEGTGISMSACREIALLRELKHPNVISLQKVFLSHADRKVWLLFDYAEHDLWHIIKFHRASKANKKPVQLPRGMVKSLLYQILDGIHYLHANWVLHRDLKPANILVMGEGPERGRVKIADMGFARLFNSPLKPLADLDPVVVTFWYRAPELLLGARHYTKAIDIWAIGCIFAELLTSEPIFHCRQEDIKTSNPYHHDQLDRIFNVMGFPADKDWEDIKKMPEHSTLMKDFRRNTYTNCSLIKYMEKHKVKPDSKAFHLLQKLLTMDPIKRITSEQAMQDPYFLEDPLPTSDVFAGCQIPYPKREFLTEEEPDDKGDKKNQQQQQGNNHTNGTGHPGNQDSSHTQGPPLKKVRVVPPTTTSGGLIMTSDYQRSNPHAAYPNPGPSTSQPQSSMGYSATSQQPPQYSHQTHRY
Sequence (P24863 whole entry partner): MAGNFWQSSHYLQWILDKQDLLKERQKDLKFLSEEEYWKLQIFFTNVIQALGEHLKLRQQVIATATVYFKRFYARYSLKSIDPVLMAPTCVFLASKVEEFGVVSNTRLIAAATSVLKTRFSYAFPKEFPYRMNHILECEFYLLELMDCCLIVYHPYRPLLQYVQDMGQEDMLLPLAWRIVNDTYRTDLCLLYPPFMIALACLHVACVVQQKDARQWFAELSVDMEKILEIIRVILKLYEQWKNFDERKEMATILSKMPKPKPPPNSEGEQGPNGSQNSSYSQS
value-type: inhibition at 0.2 µM (%)
Numbers only, in %.

Exercise: Which inhibition at 0.2 µM reading was recorded for the compound CCc1ccccc1-c1c[nH]c2ncc(-c3cccc(C(N)=O)c3)cc12 ?
Key: 24.6

Exercise: Can you look up the measured inhibition at 0.2 µM of NC(=O)c1cccc(-c2cnc3[nH]cc(-c4cccc(F)c4)c3c2)c1 for me?
Key: 23.1

Hi team, please reply with inhibition at 0.2 µM for each item in this list.
1. NC(=O)c1cccc(-c2cnc3[nH]cc(-c4cccs4)c3c2)c1
2. NC(=O)c1cccc(-c2cnc3[nH]cc(-c4cccc(OC(F)(F)F)c4)c3c2)c1
3. NC(=O)c1cccc(-c2cnc3[nH]cc(-c4ccccc4O)c3c2)c1

Key:
1: 52.5; 2: 23.4; 3: 36.2
